Biological target: human α2AAR (Homo sapiens (Human))
Sequence (P08913 whole entry): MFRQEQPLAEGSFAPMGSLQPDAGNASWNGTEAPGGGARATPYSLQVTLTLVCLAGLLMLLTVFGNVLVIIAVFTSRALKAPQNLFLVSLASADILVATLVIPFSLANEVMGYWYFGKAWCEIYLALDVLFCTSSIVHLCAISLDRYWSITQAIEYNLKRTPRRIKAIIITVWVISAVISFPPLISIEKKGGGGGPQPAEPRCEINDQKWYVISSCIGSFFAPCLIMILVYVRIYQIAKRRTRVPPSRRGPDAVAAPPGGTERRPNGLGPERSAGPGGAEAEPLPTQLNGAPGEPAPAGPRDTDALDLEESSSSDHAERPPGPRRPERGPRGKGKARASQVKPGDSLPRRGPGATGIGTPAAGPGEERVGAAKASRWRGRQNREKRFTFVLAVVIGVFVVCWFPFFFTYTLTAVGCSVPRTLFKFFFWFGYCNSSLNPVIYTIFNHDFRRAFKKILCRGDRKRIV
Assay: Gαi G protein activation, BRET biosensor assay in HEK293T cells
Settings: HEK-293T, read-out: Gi Emax ± SEM
ASSAY READOUT: Emax (%)
Report as a plain number; the unit % is understood.

Lookup: Any idea what its Emax is? The compound is O=C1CCc2c(cccc2Nc2ccncc2)N1 [PS84]
Found: 37

Lookup: // query Emax value for entry Fc1cccc2c(Nc3ccncc3)cccc12 [Compound 7075]
Found: 93

Lookup: Bench note: what Emax did c1cc(Nc2ccncc2)c2sccc2c1 [Compound 4914] show?
Found: 77

Lookup: Would you mind telling me what Emax value was observed for O=C1NCCc2c(Nc3ccncc3)cccc21 [PS86] ?
Found: 91

Lookup: Emax for Clc1ncc2ccccc2c1Nc1ccncc1 [Compound 1718] ?
Found: 47
